Test Readout: melting point

Answered examples (3):
{"Compound": "COCO[C@@H]1[C@H]2OC(C)(C)O[C@H]2[C@H](O[C@H]2C[C@H]3OC(C)(C)OC[C@]34C3C(CC[C@]4(O)C2)[C@@]2(O)CC[C@H](CO)[C@@]2(C)C[C@H]3OCOC)O[C@H]1C (some centres unmarked) [Compound 10]", "melting point": "126 to 129 °C"}
{"Compound": "CC(C)[C@H](N)C(=O)O[C@H]1CC[C@@]2(C)C(=CCC3C2CC[C@@]2(C)C3CC[C@@H]2c2cn(Cc3ccccc3)nn2)C1 (some centres unmarked)", "melting point": "195 to 197 °C"}
{"Compound": "COCO[C@H]1C[C@H]2OC(C)(C)OC[C@]23C2C(CC[C@]3(O)C1)[C@@]1(OCOC)CC[C@H](C=O)[C@@]1(C)C[C@H]2OCOC (some centres unmarked)", "melting point": "129 to 135 °C"}

Form: compound = COCO[C@@H]1[C@H]2OC(C)(C)O[C@H]2[C@H](O[C@H]2C[C@H]3OC(C)(C)OC[C@]34C3C(CC[C@]4(O)C2)[C@@]2(O)CC[C@H](C#N)[C@@]2(C)C[C@H]3OCOC)O[C@H]1C (some centres unmarked) [Compound 11] ; melting point = 97 to 99 °C

melting point reported for this compound COC(=O)Cn1cc([C@H]2CCC3C4CC=C5C[C@@H](O)CC[C@]5(C)C4CC[C@@]32C)nn1 (some centres unmarked) : 221 to 223 °C

Recorded melting point (compound C[C@]12CCC3C(CC=C4C[C@@H](O)CC[C@@]43C)[C@@H]1CC[C@@H]2C1=CC(=O)OC1 (stereo in doubt) ): 286 to 287 °C

Quick note, melting point for COCO[C@@H]1[C@H]2OC(C)(C)O[C@H]2[C@H](O[C@H]2C[C@H]3OC(C)(C)OC[C@]34C3C(CC[C@]4(O)C2)[C@@]2(O)CC[C@H](C(O)CO)[C@@]2(C)C[C@H]3OCOC)O[C@H]1C (some centres unmarked) [Compound 3] landed at 119 to 121 °C

What the record says about COCO[C@H]1C[C@H]2OC(C)(C)OC[C@]23C2C(CC[C@]3(O)C1)[C@@]1(OCOC)CC[C@H](CO)[C@@]1(C)C[C@H]2OCOC (some centres unmarked) [Compound 22] : melting point is 154 to 158 °C
